Every entry's value here was drawn from PubChem BioAssay AID2300.

# target or test system: Photoreceptor-specific nuclear receptor (Homo sapiens) (UniProt Q9Y5X4)
# Sequence (Q9Y5X4 whole entry, looked up): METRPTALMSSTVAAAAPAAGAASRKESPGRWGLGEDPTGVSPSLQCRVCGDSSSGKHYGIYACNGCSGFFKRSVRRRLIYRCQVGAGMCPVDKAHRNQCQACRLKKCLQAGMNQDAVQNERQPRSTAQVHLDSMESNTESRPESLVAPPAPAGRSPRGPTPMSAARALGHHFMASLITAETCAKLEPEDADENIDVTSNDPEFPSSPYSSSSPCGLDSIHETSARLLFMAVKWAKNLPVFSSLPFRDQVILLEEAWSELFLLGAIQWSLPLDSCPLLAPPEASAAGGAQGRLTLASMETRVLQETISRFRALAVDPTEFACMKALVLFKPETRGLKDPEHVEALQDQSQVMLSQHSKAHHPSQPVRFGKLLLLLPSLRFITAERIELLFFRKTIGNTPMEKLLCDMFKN
# protocol description: inhibitors of NR2E3-RetCOR corepressor binding, primary screen, NR2E3 agonist project, biochemical, TR-FRET, GST-NR2E3, biotin-RetCOR (AID 2300);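 further: 0% = DMSO wells and 100% = biotin wells as full block of FRET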
# test conditions: 1536-well, at 4.78 µM, stronger effect = higher value
About 380 (0.12%) of roughly 320,000 compounds were called active. The sample holds actives, similar compounds and a random draw of the others, so the mix is not that of the screen.
Listed here are compounds together with their documented inhibition of corepressor binding.
All answers are understood in %, so give the number only.

Record excerpt, results attached:
1) Cn1c(=O)c(=O)n(C)c2cc(S(=O)(=O)CCC(=O)N3CCCCC3)ccc21    1.89
2) COc1ccccc1C(C)NC(=O)Cc1ccsc1 (stereo unspecified)    2.21
3) COc1cccc(-n2cc(C(=O)O)c3ccccc3c2=O)c1    3.78
4) CCOC(=O)c1ccc(N=C2SC(C(=O)NC)CC(=O)N2CCc2ccccc2)cc1 (stereo unspecified)    -2.67

# input inhibition of corepressor binding for `CCc1ccnc(NS(=O)(=O)c2ccc3c(c2)OCCO3)c1` ?
# output -3.2

# input Can you handle `COc1ccc2cc(-c3[nH]ncc3CNCCn3nc(C)cc3C)ccc2c1` next?
# output 1.22

# input Can you handle `O=c1[nH]c(CCl)nc2cc(-c3ccc(Cl)cc3)sc12` next?
# output 1.58

# input Can you handle `CSc1sc(C(=O)NC(=O)NCc2cccnc2)c(C)c1-c1ccon1` next?
# output -5.08

# input Can you handle `CCOc1ccccc1N(CC(=O)NC1CCCCC1)C(=O)CCCC(=O)Nc1ccccn1` next?
# output 2.15

###

# target or test system: Photoreceptor-specific nuclear receptor (Homo sapiens)
# protocol description: inhibitors of NR2E3-RetCOR corepressor binding, primary screen, NR2E3 agonist project, biochemical, TR-FRET, GST-NR2E3, biotin-RetCOR (AID 2300);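 further: 0% = DMSO wells and 100% = biotin wells as full block of FRET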
# test conditions: 1536-well, at 4.78 µM
Out of some 320,000 compounds screened, about 380 (0.12%) were called active.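 How the source made its calls: active means percent inhibition above the cutoff of mean plus 3 SD of all tested compounds, set per screening campaign (cut at about 20% in these data); inactive means the rest.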 The sample holds actives, similar compounds and a random draw of the others, so the mix is not that of the screen.
I would appreciate it if you answered using one of these outcomes: 1 (yes) for active, 0 (no) for inactive

Before answering, review these 5 worked examples.
1. Cc1ccc(C(=O)COC(=O)c2cccc(N3C(=O)c4c(C)nc5ccccc5c4C3=O)c2)cc1C    0 (no)
2. O=C(COC(=O)c1ccccc1SCC(=O)NC1CCCCC1)NC1CCCCC1    0 (no)
3. O=C(CCNS(=O)(=O)c1cccs1)N1CCN(c2ccc(F)cc2)CC1    0 (no)
4. CC(=O)N1CCSc2ccc(S(=O)(=O)N3CCC(C)CC3)cc21    0 (no)
5. CC[C@@H](C)[C@@H](C(=O)N1CCN(C(=O)OC(C)(C)C)CC1)n1cc(CCC(=O)O)nn1    0 (no)

# input Outcome logged for `CCOC(=O)N1CCC(=NNC(N)=O)CC1` in this assay:
# output 0 (no)

# input Can you handle Cc1ccc(S(=O)(=O)NC2(C(F)(F)F)NC(=O)N(CCc3ccccc3)C2=O)cc1 (stereo not drawn) next?
# output 0 (no)

# input Can you handle N#Cc1c(N)nc2c3c(sc(=N)c2c1N)NC(=O)CC3c1ccccc1Cl (stereo not drawn) next?
# output 1 (yes)

###

# target or test system: Photoreceptor-specific nuclear receptor (Homo sapiens) (UniProt Q9Y5X4)
# protocol description: inhibitors of NR2E3-RetCOR corepressor binding, primary screen, NR2E3 agonist project, biochemical, TR-FRET, GST-NR2E3, biotin-RetCOR (AID 2300);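 further: 0% = DMSO wells and 100% = biotin wells as full block of FRET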
# test conditions: 1536-well, at 4.78 µM, stronger effect = higher value
The campaign covered roughly 320,000 compounds. About 380 (0.12%) were called active. The entries come from a sample that favours actives as a whole.
observed property: inhibition of corepressor binding (%)
All answers are understood in %, so give the number only.

Record excerpt, results attached:
1. Cc1ccc(C(=O)Nc2ccc(C)c(S(=O)(=O)N(C)C)c2)s1    -3.92
2. Cc1nc(N2CCOCC2)c2c(C)c(C(=O)Nc3ccc(C(F)(F)F)cc3)sc2n1    -0.86
3. O=C(NCc1ccccn1)c1ccc2nc(-c3ccco3)c(-c3ccco3)nc2c1    9.85

# input inhibition of corepressor binding for COc1ccc(C(C(=O)NC2CCCCC2)N(C(=O)CCl)c2ccccc2Cl)cc1 (stereo unspecified) ?
# output 3.2

# input Can you handle CCOc1ccc(CCNC(=O)C2=C(C)C(=O)OC23CCC(C)CC3)cc1OCC (stereo unspecified) next?
# output -3.37

# input Can you handle `C=CCNC(=O)CSc1nc2sc(C)c(C)c2c(=O)[nH]1` next?
# output -1.07

###

# target or test system: Photoreceptor-specific nuclear receptor (Homo sapiens) (UniProt Q9Y5X4)
# protocol description: inhibitors of NR2E3-RetCOR corepressor binding, primary screen, NR2E3 agonist project, biochemical, TR-FRET, GST-NR2E3, biotin-RetCOR (AID 2300);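 further: 0% = DMSO wells and 100% = biotin wells as full block of FRET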
# test conditions: 1536-well, at 4.78 µM, stronger effect = higher value
Out of some 320,000 compounds screened, about 380 (0.12%) were called active. Many of the other results were omitted from the sample, so actives are more common in it than they were.
Listed here are compounds together with their documented inhibition of corepressor binding.
All answers are understood in %, so give the number only.

1. COc1cc([C@H](Cc2ccccc2)NC(C)=O)oc(=O)c1    -1.34
2. C=C1c2c(Cl)ccc(O)c2C(O)=C2C(=O)[C@]3(O)C(O)=C(C(N)=O)C(=O)[C@@H](N(C)C)[C@@H]3[C@@H](O)C12 (some centres not stated)    3.15
3. FC(F)Oc1ccccc1NC(=S)Nc1cccc(Cl)c1Cl    3.12
4. COc1cccc(-n2c(=S)[nH]c3c(oc4ccccc43)c2=O)c1    29.2
5. O=C(COc1ccc2c3c(c(=O)oc2c1)CCCC3)NCC(O)c1ccccc1 (configuration not stated)    1.28
6. Cc1c(Cl)c([N+](=O)[O-])nn1CC(=O)NCCCN1CCOCC1    4.17

# input inhibition of corepressor binding for `O=[N+]([O-])/C(N=Nc1ccccc1)=N\Nc1ccccc1` ?
# output -0.3

# input Can you handle O=C(CNC(=O)c1ccc(Br)o1)NCC1CCCO1 (configuration not stated) next?
# output 1.48

###

# target or test system: Photoreceptor-specific nuclear receptor (Homo sapiens) (UniProt Q9Y5X4)
# protocol description: inhibitors of NR2E3-RetCOR corepressor binding, primary screen, NR2E3 agonist project, biochemical, TR-FRET, GST-NR2E3, biotin-RetCOR (AID 2300);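 further: 0% = DMSO wells and 100% = biotin wells as full block of FRET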
# test conditions: 1536-well, at 4.78 µM, stronger effect = higher value
The whole screen tested about 320,000 compounds, of which about 380 (0.12%) were called active. Many of the other results were omitted from the sample, so actives are more common in it than they were.
observed property: inhibition of corepressor binding (%)
All answers are understood in %, so give the number only.

1. CCOC(=O)c1c(NC(=O)CSc2nnc(CNc3ccc(C)cc3C)o2)sc(C)c1C    -0.79
2. Cc1nc(SCC(=O)NC2CCCC2)[nH]c(=O)c1C    -2.03
3. COc1ccc2c3c1O[C@H]1C[C@@H](O)C=C[C@@]31CCN(C)C2    4.69
4. Cc1ccccc1C(CC(=O)c1cccs1)C(C#N)C#N (centres undefined)    3.7
5. O=C(N[C@@H](Cc1ccccc1)C(=O)OCc1ccccc1)c1nc[nH]c1C(=O)NC1CCNCC1    1.4
6. O=C(Oc1ccccc1)Oc1ccc2c(c1)oc(=O)c1ccccc12    26

# input inhibition of corepressor binding for `CCCC(=O)N1CCC(CCC(=O)NC2CC2)CC1` ?
# output 0.01

# input Can you handle `COc1ccc(CNC(=O)CN(Cc2ccc(Cl)cc2)S(C)(=O)=O)cc1` next?
# output -2.12

# input Can you handle `NC(=S)c1ccc(C(N)=S)o1` next?
# output 2.26

# input Can you handle CC(=O)Nc1sc2c(c1C(c1cccc(F)c1)N1CCN(CCO)CC1)CCCC2 (centres undefined) next?
# output 2.91

# input Can you handle `CCC(CC)C(=O)Nc1c2c(nn1-c1ccc(C)cc1)CS(=O)(=O)C2` next?
# output 0.73

# input Can you handle `CC1(C)Cc2ccccc2-c2nc(CN3CCOCC3)[nH]c(=O)c21` next?
# output 0.32

# input Can you handle CCOc1ccc2nc(C(=O)N3CCCC(C)C3)sc2c1 (centres undefined) next?
# output -1.62

# input Can you handle `CCOc1ccccc1Nc1ccc(C(=O)O)cc1[N+](=O)[O-]` next?
# output 0.59
